# assay: small-molecule binders of probe aNOTCH3, primary screen, biochemical, small-molecule microarray, 635/667 nm fluorescence (AID 1120);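 further: probe is a biotin-tagged antibody raised against NOTCH3 rather than NOTCH3 protein; score merges spot fluorescence near 667 nm with spot signal to noise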
# assay-context: higher = more signal
assay-metric: composite z-score

Some entries whose results are on file:
compound	composite z-score
COCCOC(=O)N1C(=O)[C@@]2(c3cc(C#CC4=CCCCC4)ccc31)[C@H](C(=O)N1CCCCCCC1)[C@H]1C(=O)O[C@H](c3ccccc3)[C@H](c3ccccc3)N1[C@@H]2c1ccc(O)cc1	0.183
CCOC(=O)C[C@H]1[C@H](OC(=O)c2cc3ccccc3oc2=O)[C@@H](NC(=O)c2ccc(-c3ccccc3)cc2)c2cc(OCCCO)ccc2N1C(=O)c1ccc2ccccc2n1	0.0864
NC(=O)NCC#Cc1ccc2c(c1)[C@]1(C(=O)N2)[C@H](C(=O)NC[C@H](O)c2ccccc2)[C@H]2C(=O)O[C@H](c3ccccc3)[C@H](c3ccccc3)N2[C@@H]1c1ccc(OCCO)cc1	0.233
CO[C@]12C=C(Br)[C@@H](C[C@@H]1c1cccc(C)c1)[C@@]1(CO1)C2=O	-0.0311
COc1ccc([Si](C)(C)[C@@H]2[C@@H](CC(=O)N(CCO)Cc3ccccc3)O[C@]3(C(=O)N(c4ccccc4)c4ccccc43)[C@H]2C)cc1	0.105
COC(=O)c1ccc([C@H](NC(=O)c2ccco2)[C@]2(C)C[C@H]2C2CCCCC2)cc1	0.0179

Would you mind telling me what composite z-score value was observed for CCOc1cc(C(O)C2C=CC3C(=O)N(c4ccccc4)C(=O)C3N2Nc2ccc(C#N)cc2)ccc1O (configuration not stated) ?
0.0638

* * *

# assay: S. cerevisiae growth modulation with rapamycin, primary screen, strain BY4716, OD600, 96 h (AID 1091); further: test concentration not given here
# assay-context: higher = more signal, called active from +8 up or from −8 down
The entries below are paired with their reported z-score.
Lab note: jot the number down without any unit.

Some entries whose results are on file:
compound	measured
CCCC[C@@H]1C[C@H]1[C@@H](NC(=O)c1cccs1)c1ccc(C(F)(F)F)cc1	-0.0454
CN(C)C(=O)[C@]1(CCS(=O)(=O)c2ccccc2)N=C(c2ccc(OCCCO)cc2)O[C@@H]1c1ccccc1N=[N+]=[N-]	1.69
O=C1N(Cc2ccccc2)c2ccccc2[C@@H]2OC(c3ccc(OCCCO)cc3)=N[C@]12Cc1ccccc1	4.88
CC(C)(C)OC(=O)CC[C@]1(C(=O)NCC(O)CO)N=C(c2ccc(OCCCO)cc2)O[C@H]1c1ccccc1 (some centres not stated)	-0.744
COCCOC(=O)N1C(=O)[C@@]2(c3cc(C#CC4=CCCCC4)ccc31)[C@H](c1ccc(OCCO)cc1)N1[C@H](c3ccccc3)[C@H](c3ccccc3)OC(=O)[C@H]1[C@@H]2C(=O)NC[C@H](O)c1ccccc1	5.7
CC1CC/C=C\[C@H]2OC34C=CCN(C(C)C)C(=O)[C@H]3N(CCCCCCO)C(=O)[C@@H]4C2C(=O)O1 (some centres not stated)	-1.27

Shift focus to the following entry.
Would you mind telling me what z-score value was observed for COc1ccc([Si](C)(C)[C@@H]2[C@@H](CC(=O)N(CCO)Cc3ccccc3)O[C@]3(C(=O)N(c4ccccc4)c4ccccc43)[C@H]2C)cc1 ?
0.842

* * *

The entries below are paired with their reported z-score.
# assay: HepG2 cell viability effects, profiling panel, calcein-AM fluorescence, 48 h, basal (AID 1164); further: test concentration not given here
# assay-context: higher = more signal

Some entries whose results are on file:
compound	z-score
C=CCC(OC(C)=O)[C@@H]1[C@@H](N(Cc2cccc3ccccc23)C(=O)Cc2ccc(F)cc2)c2cc(OCCCO)ccc2N1C(=O)c1ccc2ccccc2n1 (stereo not given in full)	-0.117
C=CCC(OC(C)=O)[C@@H]1[C@@H](N(Cc2cccc3ccccc23)C(=O)Cc2ccc(OC)cc2)c2cc(OCCCO)ccc2N1C(=O)c1ccc2ccccc2n1 (stereo not given in full)	0.493
COc1ccc(NC(=O)O[C@H]2[C@H](OC(=O)Nc3ccccc3)[C@@H](OC(=O)Nc3ccccc3)[C@@H](OC)O[C@@H]2CO)cc1	-1.17
CCCCCCc1nc(C2CC2)cc2c1[Si](C(C)C)(C(C)C)O[C@H]2c1ccccc1	-0.106
CC(C)C(=C=CC[C@H](O)c1ccc(OCCO)cc1)C[C@H](O)c1ccccn1	1.34

Shift focus to the following entry.
Would you mind telling me what z-score value was observed for C=CCN1C(=O)[C@@]2(CCS(=O)(=O)c3ccccc3)N=C(c3ccc(OCCCO)cc3)O[C@H]2c2ccccc21 ?
0.684
